- STUDY SYSTEM: human CB2 receptor (Homo sapiens, UniProt P34972)
- Sequence (P34972 whole entry): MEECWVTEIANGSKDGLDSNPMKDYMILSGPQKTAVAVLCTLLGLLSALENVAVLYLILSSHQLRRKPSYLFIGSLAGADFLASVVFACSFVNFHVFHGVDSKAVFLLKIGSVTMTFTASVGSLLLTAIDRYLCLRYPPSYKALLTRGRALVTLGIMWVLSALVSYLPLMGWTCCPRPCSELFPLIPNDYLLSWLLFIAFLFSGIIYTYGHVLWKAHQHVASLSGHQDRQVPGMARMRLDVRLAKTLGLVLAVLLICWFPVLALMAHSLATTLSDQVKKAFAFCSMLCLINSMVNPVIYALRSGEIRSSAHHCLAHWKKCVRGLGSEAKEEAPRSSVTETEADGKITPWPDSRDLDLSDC
- ASSAY TEXT: cAMP accumulation assay, CHO cells stably expressing CB2
- DETAILS: read-out: IC50 inhibition of CB2 receptor activation, cAMP accumulation
pIC50: −log10 of the molar value.
ASSAY READOUT: pIC50

                                   compound  readout_value
0  COC(=O)C(NC(=O)c1ccc2c(c1)c1ccccc1n2CC1CCCCC1)C(C)(C)C (stereo not shown) [compound 41, MDMB-CHMCZCA]           6.09

###

- STUDY SYSTEM: human GPR55 (Homo sapiens, UniProt Q9Y2T6)
- Construct: host or cells: CHO cells
- Sequence (Q9Y2T6 whole entry): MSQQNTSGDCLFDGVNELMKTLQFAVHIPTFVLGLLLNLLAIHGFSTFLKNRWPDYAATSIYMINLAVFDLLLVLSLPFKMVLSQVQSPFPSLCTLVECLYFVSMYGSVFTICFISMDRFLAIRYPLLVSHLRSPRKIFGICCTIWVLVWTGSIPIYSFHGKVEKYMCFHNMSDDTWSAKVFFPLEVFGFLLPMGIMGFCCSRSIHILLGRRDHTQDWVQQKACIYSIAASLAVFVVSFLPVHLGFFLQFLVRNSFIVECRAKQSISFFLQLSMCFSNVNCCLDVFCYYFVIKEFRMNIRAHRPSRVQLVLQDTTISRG
- ASSAY TEXT: β-Arrestin PathHunter assay, recombinant CHO cells expressing GPR55
- Type: cell-based
- DETAILS: antagonist mode versus LPI 1 µM, value in parentheses
Reported Human GPR55 % inhibition is given for each of the following molecules.
ASSAY READOUT: Human GPR55 % inhibition (%)

In [3]: df
Out[3]:
                                    molecule                              study_system  measure_unit  readout_value
 0  NC(=O)[C@H](Cc1ccccc1)NC(=O)c1cn(CCCCCF)c2ccccc12 [compound 27, PX-1]  human GPR55 (Homo sapiens, UniProt Q9Y2T6)             %              1
 1  NC(=O)[C@H](Cc1ccccc1)NC(=O)c1nn(CC2CCCCC2)c2ccccc12 [compound 30]  human GPR55 (Homo sapiens, UniProt Q9Y2T6)             %              9
 2  CCCCCn1cc(C(=O)N[C@H](C(=O)OC)C(C)C)c2ccccc21 [compound 5, MMB-018]  human GPR55 (Homo sapiens, UniProt Q9Y2T6)             %              5
 3  O=C(c1ccc2c(c1)c1ccccc1n2CCCCCF)c1cccc2ccccc12 [compound 40, EG-2201]  human GPR55 (Homo sapiens, UniProt Q9Y2T6)             %              3
 4  CC(C)(C)[C@H](NC(=O)c1cn(CC2CCCCC2)c2ccccc12)C(N)=O [compound 22, ADB-CHMICA]  human GPR55 (Homo sapiens, UniProt Q9Y2T6)             %              8
 5  COC(=O)[C@@H](NC(=O)c1nn(CCCCCF)c2ccccc12)C(C)(C)C [compound 11, 5F-ADB]  human GPR55 (Homo sapiens, UniProt Q9Y2T6)             %              6
 6  O=C(c1cccc2ccccc12)c1nc2ccccc2n1CCCCCF [compound 42, FUBIMINA]  human GPR55 (Homo sapiens, UniProt Q9Y2T6)             %             44
 7  COC(=O)[C@@H](NC(=O)c1nn(Cc2ccc(F)cc2)c2ccccc12)C(C)(C)C [compound 12, MDMB-FUBINACA]  human GPR55 (Homo sapiens, UniProt Q9Y2T6)             %             30
 8  CCCCCn1cc(C(=O)NC(C)(C)c2ccccc2)c2ccccc21 [compound 31, Cumyl-PICA]  human GPR55 (Homo sapiens, UniProt Q9Y2T6)             %              3
 9  COC(=O)C(NC(=O)c1ccc2c(c1)c1ccccc1n2CC1CCCCC1)C(C)(C)C (stereo not drawn) [compound 41, MDMB-CHMCZCA]  human GPR55 (Homo sapiens, UniProt Q9Y2T6)             %             25
10  CC(C)(NC(=O)c1nn(CC2CCOCC2)c2ccccc12)c1ccccc1 [compound 33]  human GPR55 (Homo sapiens, UniProt Q9Y2T6)             %              7
11  COC(=O)[C@@H](NC(=O)c1nn(Cc2ccc(F)cc2)c2ccccc12)C(C)C [compound 9, FUB-AMB]  human GPR55 (Homo sapiens, UniProt Q9Y2T6)             %             17
12  O=C(Nc1cccc2ccccc12)c1cn(Cc2ccc(F)cc2)c2ccccc12 [compound 4, FDU-NNEI]  human GPR55 (Homo sapiens, UniProt Q9Y2T6)             %              2
13  O=C(c1cccc2ccccc12)c1cn(Cc2ccc(F)cc2)c2ccccc12 [compound 35, FUB-JWH-018]  human GPR55 (Homo sapiens, UniProt Q9Y2T6)             %             30
14  COC(=O)[C@@H](NC(=O)c1nn(CC2CCCCC2)c2ccccc12)C(C)C [compound 10]  human GPR55 (Homo sapiens, UniProt Q9Y2T6)             %             31
15  COC(=O)[C@@H](NC(=O)c1cn(CC2CCCCC2)c2ccccc12)C(C)(C)C [compound 13, MDMB-CHMICA]  human GPR55 (Homo sapiens, UniProt Q9Y2T6)             %             38
16  CCCCCn1c2ccccc2c2cc(C(=O)c3cccc4ccccc34)ccc21 [compound 39, EG-018]  human GPR55 (Homo sapiens, UniProt Q9Y2T6)             %              1
17  CCCCCn1nc(C(=O)N[C@H](C(=O)OC)C(C)C)c2ccccc21 [compound 6, AMB]  human GPR55 (Homo sapiens, UniProt Q9Y2T6)             %             28

###

- STUDY SYSTEM: human CB2 receptor (Homo sapiens)
Overview of recorded Ki for various compounds
ASSAY READOUT: Ki (nM)

>>> print(df.to_string())
                                   compound  measure_unit  readout_value
0  COC(=O)[C@@H](NC(=O)c1nn(CCCCCF)c2ccccc12)C(C)(C)C            nM           5.99
1  COC(=O)C(NC(=O)c1ccc2c(c1)c1ccccc1n2CC1CCCCC1)C(C)(C)C (stereo not drawn)            nM           6.67
2  CC(C)[C@H](NC(=O)c1nn(CCCCCCl)c2ccccc12)C(N)=O            nM             12

Value source: paper PMC6002460
